Would you mind telling me the reported Ratio (σ2/σ1) of each entry?
testedTarget: sigma-1 receptor (Cavia porcellus, UniProt Q60492)
Sequence (Q60492 whole entry): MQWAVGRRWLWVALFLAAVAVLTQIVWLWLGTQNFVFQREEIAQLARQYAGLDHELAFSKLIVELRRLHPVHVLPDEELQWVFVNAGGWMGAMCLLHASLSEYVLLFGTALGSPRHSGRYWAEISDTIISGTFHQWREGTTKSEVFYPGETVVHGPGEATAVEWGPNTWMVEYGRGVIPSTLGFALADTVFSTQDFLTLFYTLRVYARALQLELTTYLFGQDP
testDetails: Sigma-1 competitive binding, (+)-[3H]pentazocine, guinea pig liver membranes (Example 6)
Parameters: from tissue; host or cells: guinea pig liver membranes

Inquiry: Assign Ratio (σ2/σ1) to the following record: CCCN(CCCc1ccc(F)cc1)Cc1ccc(N=[N+]=[N-])c(I)c1
Reply text: 570.8 ^

Inquiry: Assign Ratio (σ2/σ1) to the following record: CCCCN(CCCC)CCCc1ccc([N+](=O)[O-])cc1
Reply text: 1347

Inquiry: Assign Ratio (σ2/σ1) to the following record: CCCCCCCCN(CCCCCCCC)CCCc1ccc(F)cc1
Reply text: 2.49

Inquiry: Assign Ratio (σ2/σ1) to the following record: CCCN(CCCc1ccc(F)cc1)Cc1ccc(N)c(I)c1
Reply text: 0.3389

* * *

testedTarget: sigma-1 receptor (Cavia porcellus, UniProt Q60492)
testDetails: Sigma-1 competitive binding, (+)-[3H]pentazocine, guinea pig liver membranes (Example 6);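 also: compounds tested over serial concentrations, 45 min incubation at 30 °C with membrane preparations, read-out is displacement of bound radioligand from the receptor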
Parameters: from tissue; host or cells: guinea pig liver membranes
conditionParameters: guinea pig liver membranes, n = 3; read-out: Sigma 1 KD values
Kd under 7 µM gets T, anything at or over 7 µM gets F.

Inquiry: Please determine if CCCCN(CCCC)CCCc1ccc(F)cc1 is below 7 µM in terms of Kd.
Reply text: T

Inquiry: Please determine if CN(C)CCc1c[nH]c2ccccc12 is below 7 µM in terms of Kd.
Reply text: F

Inquiry: Please determine if CCCN(CCCc1ccc(F)cc1)Cc1ccc(N)c(I)c1 is below 7 µM in terms of Kd.
Reply text: F

Inquiry: Please determine if CCCN(CCCc1ccc(F)cc1)Cc1ccc(N)cc1 is below 7 µM in terms of Kd.
Reply text: T

Inquiry: Please determine if NCCCc1ccccc1 is below 7 µM in terms of Kd.
Reply text: F

Inquiry: Please determine if CCCCNCc1ccc([N+](=O)[O-])cc1 is below 7 µM in terms of Kd.
Reply text: T

Inquiry: Please determine if CCCCN(CCCC)C(=O)CCc1ccc(F)cc1 is below 7 µM in terms of Kd.
Reply text: F

Inquiry: Please determine if CCCCN(CCCC)CCCc1ccc([N+](=O)[O-])cc1 is below 7 µM in terms of Kd.
Reply text: T

* * *

testedTarget: UniProtKB Q60492
testDetails: Competition assay against (+)-[3H]-pentazocine, trace amines
Type: binding
Design: from tissue
Would you mind telling me the reported Kd of each entry?
Give just the number in µM; leave the unit off.

Inquiry: Assign Kd to the following record: NCCc1ccccc1
Reply text: 97.4

Inquiry: Assign Kd to the following record: NCCc1c[nH]c2ccccc12
Reply text: 432

* * *

System: MCF7
testDetails: Cytotoxicity assay MCF7
Format: cell-based
conditionParameters: Homo sapiens, HU Breast, read-out: IC50 (SE) growth inhibition
Would you mind telling me the reported pIC50 of each entry?
Note: pIC50 values are expressed as the negative base-10 logarithm of concentration in M.

Inquiry: Assign pIC50 to the following record: CCCN(CCCc1ccc(F)cc1)CCc1ccc(N)cc1 [Compound 20]
Reply text: 4.38

Inquiry: Assign pIC50 to the following record: CCCCN(CCCC)CCCc1ccc([N+](=O)[O-])cc1 [Compound 11, N,N-Dibutyl-3-(4-nitrohenyl)propylamine]
Reply text: 4.65

Inquiry: Assign pIC50 to the following record: CCCN(CCCc1ccc([N+](=O)[O-])cc1)CCc1ccc(N)cc1 [Compound 18]
Reply text: 4.06

Inquiry: Assign pIC50 to the following record: CCCN(CCCc1ccc(F)cc1)CCc1ccc(N=[N+]=[N-])c(I)c1 [Compound 19]
Reply text: 4.78
